- TESTED ON: basic fibroblast growth factor (bFGF) (UniProt P09038 P09038:135-288)
- Sequence (P09038 135-288, one chain of several): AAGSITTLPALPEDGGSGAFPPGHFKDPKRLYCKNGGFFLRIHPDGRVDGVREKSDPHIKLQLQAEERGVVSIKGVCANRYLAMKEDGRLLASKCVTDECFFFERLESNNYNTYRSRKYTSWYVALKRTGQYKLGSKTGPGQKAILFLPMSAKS
- TEST METHOD NOTES: filter; PBS, 0.01% HSA, 1 mM DTT, 37 C; +/-0.4
- ASSAY CONDITIONS: tags: Bachem California, 18 kDa, 154 aa; 125I-labeled for receptor assays
QUANTITY MEASURED: Kd (nM)
Numbers only, in nM.

Prompt: Give me measured Kd, please, for this binder: 2'-NH2 34B (ssRNA, 2'-NH2 pyrimidines) RNA: GGGAGGACGAUGCGGAACGGGAGGUACGAGAGCGGGAGCGCAUAAAUAGGAAACUCCUUGCACGUCAGACGACUCGCCCGA
Completion: 2
